# Experiment Description: Stability in ethanol (residual ratio by HPLC)
# Format: physicochemical
# Run Parameters: 50% ethanol, pH 6, pH 6, 40° C., 3 months; 50% ethanol solution, 0.01%
Readout: remaining at 2160 h (%)

# input Please give measured remaining at 2160 h of the following entry: C[C@H](N=[N+]([O-])c1ccc(OCC#CI)cc1)[C@@H](C)O [Example 17]
# output 99.9

# input Please give measured remaining at 2160 h of the following entry: C[C@H](N=[N+]([O-])C=Cc1ccc(OCC#CI)cc1)[C@@H](C)O [5 (2R)]
# output 101

# input Please give measured remaining at 2160 h of the following entry: C[C@H](O)[C@H](C)N=[N+]([O-])C=Cc1ccc(OCC#CI)cc1 [5 (2S)]
# output 99.1

* * *

# Experiment Description: Stability in ethanol (residual ratio by HPLC)
# Format: physicochemical
# Run Parameters: 50% ethanol, pH 4, pH 4, 40° C., 3 months; 50% ethanol solution, 0.01%
Readout: remaining at 2160 h (%)

# input Please give measured remaining at 2160 h of the following entry: C[C@H](O)[C@H](C)N=[N+]([O-])C=Cc1ccc(OCC#CI)cc1
# output 100

# input Please give measured remaining at 2160 h of the following entry: C[C@H](N=[N+]([O-])c1ccc(OCC#CI)cc1)[C@@H](C)O
# output 100

# input Please give measured remaining at 2160 h of the following entry: C[C@H](N=[N+]([O-])C=Cc1ccc(OCC#CI)cc1)[C@@H](C)O
# output 101

* * *

# Experiment Description: Stability in ethanol (residual ratio by HPLC)
# Assay type: physicochemical
# Run Parameters: 50% ethanol, 4° C., 12 days; 50% ethanol solution, 0.01%
Readout: remaining at 288 h (%)

# input Please give measured remaining at 288 h of the following entry: CC(=NO)[C@H](C)N=[N+]([O-])/C=C/c1ccc(OCC#CI)cc1 [Control, reference compound]
# output 99.3

# input Please give measured remaining at 288 h of the following entry: C[C@H](N=[N+]([O-])c1ccc(OCC#CI)cc1)[C@@H](C)O
# output 100

* * *

# Experiment Description: Stability in ethanol (residual ratio by HPLC)
# Assay type: physicochemical
# Run Parameters: 50% ethanol, 25° C., 3 months; 50% ethanol solution, 0.01%
Readout: remaining at 2160 h (%)

# input Please give measured remaining at 2160 h of the following entry: C[C@H](N=[N+]([O-])c1ccc(OCC#CI)cc1)[C@@H](C)O
# output 99.4

# input Please give measured remaining at 2160 h of the following entry: C[C@H](O)[C@H](C)N=[N+]([O-])C=Cc1ccc(OCC#CI)cc1
# output 97.4

# input Please give measured remaining at 2160 h of the following entry: C[C@H](N=[N+]([O-])C=Cc1ccc(OCC#CI)cc1)[C@@H](C)O
# output 99.3

* * *

# Experiment Description: Stability in ethanol (residual ratio by HPLC)
# Assay type: physicochemical
# Run Parameters: 50% ethanol, 40° C., 12 days; 50% ethanol solution, 0.01%
Readout: remaining at 288 h (%)

# input Please give measured remaining at 288 h of the following entry: C[C@H](N=[N+]([O-])c1ccc(OCC#CI)cc1)[C@@H](C)O
# output 99.8

# input Please give measured remaining at 288 h of the following entry: CC(=NO)[C@H](C)N=[N+]([O-])/C=C/c1ccc(OCC#CI)cc1 [Control, reference compound]
# output 96.6

* * *

# Experiment Description: Stability in ethanol (residual ratio by HPLC)
# Assay type: physicochemical
# Run Parameters: 50% ethanol, pH 8, pH 8, 40° C., 3 months; 50% ethanol solution, 0.01%
Readout: remaining at 2160 h (%)

# input Please give measured remaining at 2160 h of the following entry: C[C@H](N=[N+]([O-])C=Cc1ccc(OCC#CI)cc1)[C@@H](C)O [5 (2R)]
# output 83.6

# input Please give measured remaining at 2160 h of the following entry: C[C@H](O)[C@H](C)N=[N+]([O-])C=Cc1ccc(OCC#CI)cc1 [5 (2S)]
# output 74.2

# input Please give measured remaining at 2160 h of the following entry: C[C@H](N=[N+]([O-])c1ccc(OCC#CI)cc1)[C@@H](C)O [Example 17]
# output 100

* * *

# Test system: Trichophyton rubrum
Readout: MIC (µg/mL)

# input Write MIC of C[C@H](O)[C@H](C)N=[N+]([O-])C=Cc1ccc(OCC#CI)cc1 ; system used: Trichophyton rubrum
# output 1.6

# input Write MIC of C[C@H](N=[N+]([O-])c1ccc(OCC#CI)cc1)[C@@H](C)O ; system used: Trichophyton rubrum
# output 1.6

# input Write MIC of CC(=C[N+]([O-])=NC(C)COCC#CI)c1ccc(Cl)cc1 (stereo not shown) ; system used: Trichophyton rubrum
# output 0.8

# input Write MIC of CC(O)C(C)N=[N+]([O-])c1ccc(OCC#CI)cc1 (stereo not shown) ; system used: Trichophyton rubrum
# output 1.6

# input Write MIC of CC(=C[N+]([O-])=NC(C)C(C)OCC#CI)c1ccccc1Cl (stereo not shown) ; system used: Trichophyton rubrum
# output 1.6

[P] C[C@H](N=[N+]([O-])C=Cc1ccc(OCC#CI)cc1)[C@@H](C)O
[Q] C#CCOc1ccc(C=C[N+]([O-])=NC(C)C(C)O)cc1 (stereo not shown)
# input Between P and Q , which one shows the smaller MIC number? Respond using the label that marks the chosen record.
# output Q
(Q: 0.2 µg/mL, P: 1.6 µg/mL)

* * *

# Experiment Description: Stability in ethanol (residual ratio by HPLC)
# Type: physicochemical
# Run Parameters: 50% ethanol, 25° C., 12 days; 50% ethanol solution, 0.01%
Readout: remaining at 288 h (%)

# input Please give measured remaining at 288 h of the following entry: CC(=NO)[C@H](C)N=[N+]([O-])/C=C/c1ccc(OCC#CI)cc1 [Control, reference compound]
# output 95.8

# input Please give measured remaining at 288 h of the following entry: C[C@H](N=[N+]([O-])c1ccc(OCC#CI)cc1)[C@@H](C)O
# output 102

* * *

# Tested on: Microsporum canis
Readout: MIC (µg/mL)

# input Write MIC of CC(O)C(C)N=[N+]([O-])c1ccc(OCC#CI)cc1 (stereo not shown) ; system used: Microsporum canis
# output 0.8

# input Write MIC of C[C@H](N=[N+]([O-])C=Cc1ccc(OCC#CI)cc1)[C@@H](C)O ; system used: Microsporum canis
# output 1.6

# input Write MIC of C[C@H](N=[N+]([O-])c1ccc(OCC#CI)cc1)[C@@H](C)O ; system used: Microsporum canis
# output 0.8

[I] C#CCOc1ccc(C=C[N+]([O-])=NC(C)C(C)O)cc1 (stereo not shown)
[II] C[C@H](O)[C@H](C)N=[N+]([O-])C=Cc1ccc(OCC#CI)cc1
# input Between I and II , which one shows the smaller MIC number? Respond using the label that marks the chosen record.
# output I
(I: 0.2 µg/mL, II: 1.6 µg/mL)
